ASSAYED_TARGET: UniProt Q9EQZ6
Sequence (Q9EQZ6 1-993 isoform Q9EQZ6-3): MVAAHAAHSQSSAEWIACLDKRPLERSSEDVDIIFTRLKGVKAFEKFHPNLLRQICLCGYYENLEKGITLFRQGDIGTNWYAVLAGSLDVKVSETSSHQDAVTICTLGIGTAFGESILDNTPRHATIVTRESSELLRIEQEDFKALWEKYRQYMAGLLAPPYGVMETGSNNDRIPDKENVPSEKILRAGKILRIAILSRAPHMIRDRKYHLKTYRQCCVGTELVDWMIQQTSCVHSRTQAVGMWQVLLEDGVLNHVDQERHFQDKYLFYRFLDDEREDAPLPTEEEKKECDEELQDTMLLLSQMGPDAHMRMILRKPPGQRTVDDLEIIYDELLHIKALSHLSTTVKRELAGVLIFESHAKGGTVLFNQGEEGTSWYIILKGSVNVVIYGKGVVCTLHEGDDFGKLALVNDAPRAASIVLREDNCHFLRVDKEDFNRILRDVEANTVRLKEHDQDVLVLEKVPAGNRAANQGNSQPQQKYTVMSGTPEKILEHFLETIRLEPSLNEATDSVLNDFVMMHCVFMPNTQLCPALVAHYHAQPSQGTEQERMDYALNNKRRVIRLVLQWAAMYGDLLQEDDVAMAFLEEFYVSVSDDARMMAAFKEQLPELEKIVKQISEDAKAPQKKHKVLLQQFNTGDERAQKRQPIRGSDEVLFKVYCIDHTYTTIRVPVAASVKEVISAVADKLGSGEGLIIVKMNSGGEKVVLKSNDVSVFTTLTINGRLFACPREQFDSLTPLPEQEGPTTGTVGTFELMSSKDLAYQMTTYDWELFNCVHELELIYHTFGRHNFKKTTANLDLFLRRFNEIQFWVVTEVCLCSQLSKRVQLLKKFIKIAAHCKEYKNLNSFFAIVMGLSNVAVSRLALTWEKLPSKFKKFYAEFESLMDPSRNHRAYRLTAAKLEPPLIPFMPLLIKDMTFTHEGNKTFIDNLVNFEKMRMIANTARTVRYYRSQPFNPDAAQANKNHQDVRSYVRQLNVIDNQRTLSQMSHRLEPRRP
ASSAY_COMMENT: Epac activation assay, full length Epac2
Format: biochemical
Set-up: made in house
STATED_CONDITIONS: 7 μM compound
OBSERVED_PROPERTY: kobs (s⁻¹)
Kindly provide the numeric value in s⁻¹ only, without the unit symbol.

Nc1ncnc2c1nc(SCc1ccccc1)n2[C@@H]1O[C@@H]2CO[P@](O)(=S)O[C@H]2[C@H]1O | 0.00118

Q: # lookup: UniProt Q9EQZ6 kobs, key = COC1C2OP(=O)(O)OCC2OC1n1c(Sc2ccc(Cl)cc2)nc2c(N)ncnc21 [D-007, 8-pCPT-2′-O-Me-cAMP, reference compound]
Ans: 3.51e-05

Q: # lookup: UniProt Q9EQZ6 kobs, key = "Cc1ccc(CSc2nc3c(N)ncnc3n2[C@@H]2O[C@@H]3CO[P@](O)(=S)O[C@H]3[C@H]2O)cc1"
Ans: 0.000209

Q: # lookup: UniProt Q9EQZ6 kobs, key = Nc1ncnc2c1ncn2[C@@H]1O[C@@H]2COP(=O)(O)O[C@H]2[C@H]1O [cAMP, reference compound]
Ans: 5.49e-05
